Listed here: items and their measured inhibition at 30 µM.
# Tested On: Xanthine oxidase (XO) (Bos taurus, UniProt P80457)
# Construct: purchased Sigma-Aldrich X4875
# Sequence (P80457 whole entry): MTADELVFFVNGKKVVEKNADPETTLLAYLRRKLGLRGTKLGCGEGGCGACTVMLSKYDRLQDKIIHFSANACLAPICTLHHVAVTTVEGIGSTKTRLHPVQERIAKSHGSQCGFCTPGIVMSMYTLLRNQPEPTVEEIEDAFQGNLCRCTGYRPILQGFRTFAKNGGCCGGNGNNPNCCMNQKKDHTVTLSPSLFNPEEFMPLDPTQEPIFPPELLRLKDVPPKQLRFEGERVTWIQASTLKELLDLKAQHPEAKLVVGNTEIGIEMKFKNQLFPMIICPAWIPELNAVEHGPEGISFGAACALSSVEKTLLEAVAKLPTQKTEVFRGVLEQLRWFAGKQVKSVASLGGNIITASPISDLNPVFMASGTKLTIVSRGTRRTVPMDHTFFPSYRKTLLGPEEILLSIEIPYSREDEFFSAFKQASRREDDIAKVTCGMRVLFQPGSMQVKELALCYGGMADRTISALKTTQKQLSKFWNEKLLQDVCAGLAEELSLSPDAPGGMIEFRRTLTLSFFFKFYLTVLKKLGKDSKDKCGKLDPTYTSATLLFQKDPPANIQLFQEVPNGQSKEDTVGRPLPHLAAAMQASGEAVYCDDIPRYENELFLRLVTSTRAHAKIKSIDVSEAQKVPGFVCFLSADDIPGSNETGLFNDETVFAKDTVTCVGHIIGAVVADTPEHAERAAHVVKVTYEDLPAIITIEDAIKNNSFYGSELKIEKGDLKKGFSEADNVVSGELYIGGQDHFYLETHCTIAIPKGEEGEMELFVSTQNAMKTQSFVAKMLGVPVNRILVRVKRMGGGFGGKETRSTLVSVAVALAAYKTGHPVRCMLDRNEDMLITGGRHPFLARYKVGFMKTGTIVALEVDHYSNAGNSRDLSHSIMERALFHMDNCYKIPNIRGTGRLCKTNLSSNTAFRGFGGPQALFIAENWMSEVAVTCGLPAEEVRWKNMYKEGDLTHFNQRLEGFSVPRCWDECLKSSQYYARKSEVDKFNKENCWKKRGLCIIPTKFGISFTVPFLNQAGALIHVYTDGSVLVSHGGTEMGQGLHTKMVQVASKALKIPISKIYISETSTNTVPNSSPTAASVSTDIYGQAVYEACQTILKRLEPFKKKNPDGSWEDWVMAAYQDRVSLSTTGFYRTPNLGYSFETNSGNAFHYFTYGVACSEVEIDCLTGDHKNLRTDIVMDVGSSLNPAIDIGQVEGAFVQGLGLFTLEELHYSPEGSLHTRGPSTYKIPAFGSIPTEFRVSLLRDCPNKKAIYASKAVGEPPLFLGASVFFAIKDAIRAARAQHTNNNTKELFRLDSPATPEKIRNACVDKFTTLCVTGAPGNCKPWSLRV
# Experiment Notes: XO inhibitory assay (spectrophotometric quantification of uric acid formation at 295 nm)
# Assay type: biochemical
# Details: read-out: XO inhibition (%)
Give just the number in %; leave the unit off.

The reported inhibition at 30 µM value, Xanthine oxidase (XO) (Bos taurus, UniProt P80457), for Oc1ncnc2[nH]ncc12 [Allo, allopurinol, reference compound] reads 88.5

The reported inhibition at 30 µM value, Xanthine oxidase (XO) (Bos taurus, UniProt P80457), for CCn1c(O)c(C(c2ccc([N+](=O)[O-])cc2)c2c(O)n(CC)c(=S)n(CC)c2=O)c(=O)n(CC)c1=S [Compound 6] reads 92.2

The reported inhibition at 30 µM value, Xanthine oxidase (XO) (Bos taurus, UniProt P80457), for CCn1c(O)c(C(c2cccnc2)c2c(O)n(CC)c(=S)n(CC)c2=O)c(=O)n(CC)c1=S [Compound 19] reads 91.7
